- System: Escherichia coli TOP10
- method-notes: shrunken log2 fold change of peptide-encoding DNA abundance (4.5 h post-induction vs induction); higher = less antimicrobial activity (less host growth inhibition)
- test-parameters: time post-induction: 4.5 h; library: site-saturation at positions 5, 18, 19, 20
# if value of shrunken log2 fold change reaches 0.1, tag Y; if it stays below, tag N

Completed entries (count: 5):
RRIRLRPPRLPRPRPRPYNQPRP : N
RRIRDRPPRLPRPRPRPMVRPRP : Y
RRIRCRPPRLPRPRPRPCIVPRP : N
RRIRNRPPRLPRPRPRPTQKPRP : Y
RRIRIRPPRLPRPRPRPTQDPRP : N

Ask: Is shrunken log2 fold change for "RRIRQRPPRLPRPRPRPFDDPRP" at or above 0.1?
Reply: N

Ask: Assess whether reported shrunken log2 fold change for "RRIRVRPPRLPRPRPRPDHYPRP" sits at 0.1 or higher.
Reply: N

###

- Tested on: Escherichia coli TOP10
- method-notes: shrunken log2 fold change of peptide-encoding DNA abundance (4.5 h post-induction vs induction); higher = less antimicrobial activity (less host growth inhibition)
- test-parameters: time post-induction: 4.5 h; library: site-saturation at positions 5, 18, 19, 20
Classification field: Criterion met = shrunken log2 fold change at or over -0.003; Criterion not met = shrunken log2 fold change under -0.003.

Worked set:
RRIRIRPPRLPRPRPRPVHTPRP : Criterion not met
RRIRIRPPRLPRPRPRPSNPPRP : Criterion not met
RRIRQRPPRLPRPRPRPIWTPRP : Criterion met

Ask: Quick check, shrunken log2 fold change >= -0.003? "RRIRCRPPRLPRPRPRPRCTPRP"
Reply: Criterion not met

Ask: State whether the measured shrunken log2 fold change reaches -0.003, counting equality as reaching it, for "RRIRYRPPRLPRPRPRPHGSPRP"
Reply: Criterion not met

###

- Tested on: Escherichia coli TOP10;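 also: peptides expressed intracellularly from a pBAD plasmid library in pooled LB shake-flask culture, induced with 0.3% L-arabinose, DNA abundance read by NGS, three biological replicates, DESeq2 with apeglm shrinkage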
- method-notes: shrunken log2 fold change of peptide-encoding DNA abundance (4.5 h post-induction vs induction); higher = less antimicrobial activity (less host growth inhibition)
- test-parameters: time post-induction: 4.5 h; library: site-saturation at positions 5, 18, 19, 20
shrunken log2 fold change by entry:

These recorded examples may help you get a feel for the data.
RRIRKRPPRLPRPRPRPEMQPRP : 1.92
RRIRSRPPRLPRPRPRPDEVPRP : 0.0037
RRIRVRPPRLPRPRPRPVGCPRP : 0.417
RRIRIRPPRLPRPRPRPFWDPRP : -0.0885
RRIRSRPPRLPRPRPRPIFDPRP : -0.0516

Ask: Form field: reported shrunken log2 fold change of "RRIRGRPPRLPRPRPRPMDEPRP"
Reply: 0.237

Ask: May I ask what shrunken log2 fold change has been recorded for "RRIRNRPPRLPRPRPRPNDLPRP" ?
Reply: -0.0167

Ask: Which shrunken log2 fold change is reported for this sequence? "RRIRMRPPRLPRPRPRPGHAPRP"
Reply: 2.85

Ask: Name the recorded shrunken log2 fold change for "RRIRHRPPRLPRPRPRPCMEPRP" .
Reply: -0.0962

Ask: # get_value(readout='shrunken log2 fold change', item= "RRIRNRPPRLPRPRPRPNSSPRP" )
Reply: -0.219

Ask: Return reported shrunken log2 fold change; argument: "RRIRGRPPRLPRPRPRPYDMPRP"
Reply: -0.0187

Ask: Endpoint output: shrunken log2 fold change of "RRIRHRPPRLPRPRPRPCNSPRP" . Value?
Reply: -0.0938

Ask: Need shrunken log2 fold change of "RRIRWRPPRLPRPRPRPCYKPRP" , thanks.
Reply: -0.00556

Ask: If you can, please state the reported shrunken log2 fold change value of "RRIRYRPPRLPRPRPRPMWNPRP" .
Reply: -0.302

Data origin, for the record: the supplement of paper PMC9112550
